# Experimental system: BACE1 (HTRF long substrate and FRET short substrate assays of Example 9D)
# Test description: cell-based or functional assay

Binder	Uom	EC50, FRET short substrate
5260 (antibody, V domains shown, anti-BACE1 IgG) VH: QVQLVQSGAEVKKPGSSVKVSCKASGGTFSSYAISWVRQAPGQGLEWMGSIIPIFGTANYAQKFQGRVTITADESTSTAYMELSSLRSEDTAVYYCARSGGTKYGMLDVWGQGTMVTVSS VL: EIVMTQSPATLSVSPGERATLSCRASQSVGSNLAWYQQKPGQAPRLLIYGASTRATGIPARFSGSGSGTEFTLTISSLQSEDFAVYYCQQAVVWPPRTFGGGTKVEIK	nM	36.8
5880 (antibody, V domains shown, anti-BACE1 IgG) VH: EVQLLESGGGLVQPGGSLRLSCAASGFTFGSYAMTWVRQAPGKGLEWVSAISGSGISTPYADSVKGRFTISRDNSKNTLYLQMNSLRAEDTAVYYCAKGAGHGSYVKGWFDPWGQGTLVTVSS VL: EIVLTQSPATLSLSPGERATLSCRASQSVSSYLAWYQQKPGQAPRLLIYDASNRATGIPARFSGSGSGTDFTLTISSLEPEDFAVYYCQQSVNFPFTFGGGTKVEIK	nM	7.88
